src = patent US10660877B2

measured-on: human TLR8 (Homo sapiens (Human))
test-name: TLR8 inhibition reporter assay (HEK-Blue cells, SEAP reporter, R848 stimulation)
condition: read-out: TLR8 IC50, HEK-Blue cells overexpressing human TLR8, R848 15.9 μM
recorded-metric: IC50 (nM)

Use the examples below as a reference point.
input: Which value of IC50 has been reported for Cc1cc(-c2[nH]c3ccc(C4CCN(C(=O)C5(C)CCNCC5)CC4)cc3c2C(C)C)cc(C)n1 in the records?
output: 23.9

input: Recorded IC50 for Cc1cc(-c2[nH]c3ccc(C4CCN(C(=O)CN(C)C5COC5)CC4)cc3c2C(C)C)cc(C)n1 , please?
output: 49.7

input: Field request: IC50 | item: COc1cc(-c2[nH]c3ccc(C4CCNCC4)cc3c2C(C)C)c(F)cn1
output: 36.2

(P) Cc1cc(-c2[nH]c3cc(F)c(C4CCNCC4)cc3c2C(C)C)cc(C)n1
(Q) CC(C)c1c(-c2ccncc2)[nH]c2ccc(C3CCN(C(=O)CN(C)C)CC3)cc12
input: # return whichever of P and Q has the smaller IC50 // return label of chosen record
output: P

(A) CC(C)c1c(-c2c(Cl)cncc2Cl)[nH]c2ccc(C3CCNCC3)cc12
(B) Cc1cc(-c2[nH]c3ccc(C4CCN(CC(=O)N(CCO)Cc5ccccc5)CC4)cc3c2C(C)C)cc(C)n1
(C) Cc1cc(-c2[nH]c3ccc(C4CCN(CC(=O)NCC(C)O)CC4)cc3c2C(C)C)cc(C)n1 (centres unmarked)
input: Rank items: key IC50, increasing. Please express your ranking as an ordered list of the labels.
output: C, B, A
(C: 5.1 nM, B: 72.2 nM, A: 128 nM)

###

measured-on: human TLR9 (Homo sapiens (Human))
Sequence (Q9NR96 26-1032): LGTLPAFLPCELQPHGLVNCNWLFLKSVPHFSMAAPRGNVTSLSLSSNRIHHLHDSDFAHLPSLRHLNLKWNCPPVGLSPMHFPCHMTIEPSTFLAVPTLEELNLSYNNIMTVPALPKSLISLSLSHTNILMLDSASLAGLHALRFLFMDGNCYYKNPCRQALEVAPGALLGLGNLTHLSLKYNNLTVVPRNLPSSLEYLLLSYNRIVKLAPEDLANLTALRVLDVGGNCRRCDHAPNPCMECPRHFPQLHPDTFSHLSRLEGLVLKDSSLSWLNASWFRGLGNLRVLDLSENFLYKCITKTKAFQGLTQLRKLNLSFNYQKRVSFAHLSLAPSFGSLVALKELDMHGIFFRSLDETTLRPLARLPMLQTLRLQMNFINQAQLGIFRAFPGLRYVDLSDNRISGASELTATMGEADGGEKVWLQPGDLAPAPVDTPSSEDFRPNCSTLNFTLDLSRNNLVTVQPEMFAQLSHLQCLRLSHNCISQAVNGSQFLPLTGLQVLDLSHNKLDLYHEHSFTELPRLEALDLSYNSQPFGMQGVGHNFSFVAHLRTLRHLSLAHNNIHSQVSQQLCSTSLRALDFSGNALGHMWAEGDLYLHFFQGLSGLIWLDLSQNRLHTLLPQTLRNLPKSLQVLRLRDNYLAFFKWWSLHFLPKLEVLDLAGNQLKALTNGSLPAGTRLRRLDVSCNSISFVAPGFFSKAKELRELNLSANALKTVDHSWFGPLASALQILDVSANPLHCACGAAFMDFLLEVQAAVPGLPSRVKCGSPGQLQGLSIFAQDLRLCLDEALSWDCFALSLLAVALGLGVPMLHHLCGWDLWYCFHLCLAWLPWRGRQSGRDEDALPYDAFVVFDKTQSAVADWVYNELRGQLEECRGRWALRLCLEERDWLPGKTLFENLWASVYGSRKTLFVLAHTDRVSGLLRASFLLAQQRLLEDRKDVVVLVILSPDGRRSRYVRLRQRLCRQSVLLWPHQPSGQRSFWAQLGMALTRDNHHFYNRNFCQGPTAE
test-name: TLR9 inhibition reporter assay (HEK-Blue cells, SEAP reporter, ODN2006 stimulation);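 note: compounds tested over 0.05 nM to 50 µM, 22 h incubation, inhibition taken as SEAP signal drop from agonist plus DMSO wells toward a known inhibitor control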
condition: TLR9 IC50, HEK-Blue cells overexpressing human TLR9, ODN2006 5 nM
recorded-metric: IC50 (nM)

input: State its IC50 on human TLR9 (Homo sapiens (Human)): CNCCN1CCC(c2ccc3[nH]c(-c4cc(C)nc(C)c4)c(C(C)C)c3c2)CC1
output: 120

input: So what IC50 did Cc1cc(-c2[nH]c3ccc(C4CCN(C(=O)C5CCNC5)CC4)cc3c2C(C)C)cc(C)n1 (single isomer, unassigned) [Example 182] get with human TLR9 (Homo sapiens (Human))?
output: 151

input: Please provide the recorded IC50 for Cc1cc(-c2[nH]c3ccc(C4CCN(CC(=O)N5CCOCC5)CC4)cc3c2C(C)C)cc(C)n1 , tested on human TLR9 (Homo sapiens (Human)).
output: 627

input: Return IC50 measured with human TLR9 (Homo sapiens (Human)) given this molecule: Cc1cc(-c2[nH]c3ccc(C4CCN(C(=O)C5CCNC5)CC4)cc3c2C(C)C)cc(C)n1 (stereo not shown) [Example 186]
output: 516

input: Request: IC50, test system human TLR9 (Homo sapiens (Human)), entry Cc1cc(-c2[nH]c3ccc(C4CCN(CC(=O)N5CCCC5C)CC4)cc3c2C(C)C)cc(C)n1 (stereo not shown)
output: 483

(A) COCCN1CCN(CC(=O)N2CCC(c3ccc4[nH]c(-c5cc(C)nc(C)c5)c(C(C)C)c4c3)CC2)CC1
(B) Cc1cc(-c2[nH]c3ccc(C4CCNCC4O)cc3c2C(C)C)cc(C)n1 (single isomer, unassigned) [Example 488A]
input: Param pair: A , B . Output: the one whose IC50 is numerically greater. // return label of chosen record
output: A
(A: 602 nM, B: 240 nM)

###

measured-on: human TLR8 (Homo sapiens (Human), UniProt Q9NR97)
Sequence (Q9NR97 27-1041): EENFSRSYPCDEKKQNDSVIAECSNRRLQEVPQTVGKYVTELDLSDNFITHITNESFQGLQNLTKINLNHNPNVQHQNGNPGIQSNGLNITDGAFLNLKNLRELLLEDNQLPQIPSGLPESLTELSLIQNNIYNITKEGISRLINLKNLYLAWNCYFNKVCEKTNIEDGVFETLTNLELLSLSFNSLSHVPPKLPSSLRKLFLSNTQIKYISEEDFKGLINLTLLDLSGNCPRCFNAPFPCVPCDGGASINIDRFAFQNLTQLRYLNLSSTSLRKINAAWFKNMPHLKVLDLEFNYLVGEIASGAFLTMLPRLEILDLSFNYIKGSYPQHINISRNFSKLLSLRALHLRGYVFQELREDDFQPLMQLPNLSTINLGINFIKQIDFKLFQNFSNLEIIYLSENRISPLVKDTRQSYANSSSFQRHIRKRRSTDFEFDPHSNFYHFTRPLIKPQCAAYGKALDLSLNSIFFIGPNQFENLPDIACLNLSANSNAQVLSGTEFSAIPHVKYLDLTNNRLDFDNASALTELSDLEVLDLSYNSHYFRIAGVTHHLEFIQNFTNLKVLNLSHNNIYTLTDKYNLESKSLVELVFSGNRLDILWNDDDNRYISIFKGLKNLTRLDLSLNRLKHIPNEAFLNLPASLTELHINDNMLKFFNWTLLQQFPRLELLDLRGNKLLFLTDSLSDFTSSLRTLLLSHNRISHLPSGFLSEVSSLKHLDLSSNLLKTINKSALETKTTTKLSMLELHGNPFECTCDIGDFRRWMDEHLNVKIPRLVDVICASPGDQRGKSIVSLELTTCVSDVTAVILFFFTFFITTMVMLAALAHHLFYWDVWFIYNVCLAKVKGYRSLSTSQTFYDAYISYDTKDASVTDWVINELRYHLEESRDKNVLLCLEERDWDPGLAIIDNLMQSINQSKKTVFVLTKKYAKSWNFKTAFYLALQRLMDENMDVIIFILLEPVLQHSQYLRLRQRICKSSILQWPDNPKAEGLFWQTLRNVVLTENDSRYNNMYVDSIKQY
test-name: TLR8 inhibition reporter assay (HEK-Blue cells, SEAP reporter, R848 stimulation);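 note: compounds tested from 0.05 nM to 50 µM, 22 h at 37 °C, SEAP measured with HEK-Blue Detection, inhibition relative to agonist plus DMSO versus a known inhibitor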
condition: read-out: TLR8 IC50, HEK-Blue cells overexpressing human TLR8, R848 15.9 μM
pIC50: −log10 of the molar value.
recorded-metric: pIC50

// solved cases for pIC50 follow
input: Report pIC50 for CC(C)c1c(-c2cc(C3CC3)ncc2F)[nH]c2ccc(C3CCNCC3)cc12 [Example 481] please.
output: 7.02

input: I am curious: what pIC50 value has been reported for Cc1cc(-c2[nH]c3ccc(C4CCN(C5CCOC5)CC4)cc3c2C(C)C)ccn1 (stereo not shown) [Example 717] ?
output: 8.23

input: Which measured pIC50 value corresponds to CCc1c(-c2ccnc(-c3nnc[nH]3)c2)[nH]c2ccc(C3CCNCC3)cc12 [Example 66] ?
output: 6.80

(I) Cc1cc(-c2[nH]c3ccc(C4CCN(C(=O)Cn5ccc(C6CC6)n5)CC4)cc3c2C(C)C)cc(C)n1 [Example 162]
(II) CCc1c(-c2cc(Cl)ncc2OC)[nH]c2ccc(C3CCN(C4CCN(CC(C)C)CC4)CC3)cc12 [Example 763]
input: Please state the entry with greater pIC50 among I and II . Answer = label.
output: I

(A) Cc1cc(-c2[nH]c3ccc(C4CCN(CC(=O)N5CCC(F)(F)CC5)CC4)cc3c2C(C)C)cc(C)n1 [Example 257]
(B) CCc1c(-c2ccnc(OC)c2)[nH]c2ccc(C3CCNCC3)cc12 [Example 61]
input: Pick one: A or B . Which has the bigger pIC50 number? Lab log: write the label of the selected item as the result.
output: A
(A: 7.86, B: 7.23)

(I) COc1ncc(CN2CCC(c3ccc4[nH]c(-c5cc(C)nc(C)c5)c(C(C)C)c4c3)CC2)cn1 [Example 430]
(II) Cc1cc(-c2[nH]c3ccc(C4CCN(C(=O)CNC5(C)CC5)CC4)cc3c2C(C)C)cc(C)n1 [Example 360]
input: Lowest pIC50? choose I or II Which one? Tell me its label.
output: II
(II: 7.80, I: 8.23)

(a) Cc1cc(-c2[nH]c3ccc(C4CCN(Cc5ccccc5)CC4)cc3c2C(C)C)cc(C)n1 [Example 318]
(b) Cc1cc(-c2[nH]c3ccc(C4CCN(CC5COC5)CC4)cc3c2C(C)C)c(F)cn1 [Example 646]
(c) CCN(CC)CCCN1CCC(c2ccc3[nH]c(-c4cc(C)nc(C)c4)c(C(C)C)c3c2)CC1 [Example 671]
(d) Cc1cc(-c2[nH]c3ccc(C4CCN(C5CCN(C(C)C)CC5)CC4)cc3c2CC(F)F)cc(C)n1 [Example 540]
(e) Cc1cc(-c2[nH]c3ccc(C4CCN(Cc5nnc(C6CC6)o5)CC4)cc3c2C(C)C)cc(C)n1 [Example 448]
input: // smallest pIC50 at index 0, largest at the end Kindly provide the labels arranged according to the requested ordering.
output: e, d, a, b, c
(e: 7.25, d: 7.59, a: 7.90, b: 8.32, c: 8.59)

(1) Cc1cc(-c2[nH]c3ccc(C4CCN(Cc5ncn(C)n5)CC4)cc3c2C(C)C)cc(C)n1 [Example 451]
(2) Cc1cc(-c2[nH]c3ccc(C4CCN(Cc5c[nH]nn5)CC4)cc3c2C(C)C)cc(C)n1 [Example 446]
input: When the recorded pIC50 values are compared, which is smaller: that of 1 or that of 2 ? Pick one; state its label.
output: 1
(1: 7.91, 2: 8.59)

###

measured-on: human TLR7 (Homo sapiens (Human))
Sequence (Q9NYK1 27-1049): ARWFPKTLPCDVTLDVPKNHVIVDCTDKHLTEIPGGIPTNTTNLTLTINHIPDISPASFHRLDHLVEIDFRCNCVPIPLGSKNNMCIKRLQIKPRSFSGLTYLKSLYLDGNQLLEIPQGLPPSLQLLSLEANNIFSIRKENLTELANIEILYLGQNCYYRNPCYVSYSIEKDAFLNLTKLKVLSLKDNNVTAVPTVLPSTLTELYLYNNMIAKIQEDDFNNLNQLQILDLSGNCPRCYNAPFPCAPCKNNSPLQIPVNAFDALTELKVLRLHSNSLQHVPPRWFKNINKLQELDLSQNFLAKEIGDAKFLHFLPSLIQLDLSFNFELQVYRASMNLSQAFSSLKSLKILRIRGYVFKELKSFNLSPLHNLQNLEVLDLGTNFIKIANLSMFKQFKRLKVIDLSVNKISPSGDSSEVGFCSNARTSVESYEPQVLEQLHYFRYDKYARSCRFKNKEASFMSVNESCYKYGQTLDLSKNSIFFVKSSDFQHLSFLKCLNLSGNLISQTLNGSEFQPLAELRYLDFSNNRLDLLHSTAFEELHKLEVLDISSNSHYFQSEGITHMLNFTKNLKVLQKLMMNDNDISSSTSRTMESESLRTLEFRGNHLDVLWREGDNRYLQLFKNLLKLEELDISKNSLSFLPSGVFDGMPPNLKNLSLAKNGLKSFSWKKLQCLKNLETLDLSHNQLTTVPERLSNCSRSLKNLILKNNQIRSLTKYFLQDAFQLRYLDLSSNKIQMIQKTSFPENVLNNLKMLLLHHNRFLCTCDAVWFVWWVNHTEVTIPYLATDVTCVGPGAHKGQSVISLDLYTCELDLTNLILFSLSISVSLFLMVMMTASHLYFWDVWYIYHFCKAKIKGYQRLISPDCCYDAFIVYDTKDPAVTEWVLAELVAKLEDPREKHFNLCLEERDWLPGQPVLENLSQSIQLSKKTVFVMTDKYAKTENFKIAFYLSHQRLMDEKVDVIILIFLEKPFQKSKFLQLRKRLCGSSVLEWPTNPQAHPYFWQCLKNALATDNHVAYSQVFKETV
test-name: TLR7 inhibition reporter assay (HEK-Blue cells, SEAP reporter, gardiquimod stimulation)
Type: cell-based
condition: HEK-Blue cells overexpressing human TLR7, gardiquimod 7.5 μM
recorded-metric: IC50 (nM)

(I) Cc1cc(-c2[nH]c3ccc(C4CCN(C5CCOC5)CC4)cc3c2C(C)C)c(F)cn1 (stereo not shown)
(II) Cc1cc(-c2[nH]c3ccc(C4CCN(C(=O)OCC(C)C)CC4)cc3c2C(C)C)ccn1
(III) Cc1cc(-c2[nH]c3ccc(C4CCN(CC(C)(C)C(=O)O)CC4)cc3c2C(C)C)cc(C)n1
(IV) Cc1cc(-c2[nH]c3ccc(C4CCN(CC(=O)N[C@H]5CC[C@H](O)CC5)CC4)cc3c2C(C)C)cc(C)n1
input: Please sort the molecules listed above from highest to lowest IC50. List the labels according to the requested ordering.
output: II, III, I, IV

###

measured-on: human TLR7 (Homo sapiens (Human))
test-name: TLR7 inhibition reporter assay (HEK-Blue cells, SEAP reporter, gardiquimod stimulation)
Type: cell-based
condition: HEK-Blue cells overexpressing human TLR7, gardiquimod 7.5 μM
pIC50: −log10 of the molar value.
recorded-metric: pIC50

input: What does the data say about its pIC50? Entry: Cc1cc(-c2[nH]c3ccc(C4CCN(C(=O)C5(C#N)CC5)CC4)cc3c2C(C)C)ccn1 [Example 611]
output: 7.71

input: Any idea what pIC50 was measured for Cc1cc(-c2[nH]c3ccc(C4CCN(C(=O)Cn5ccc(C(F)(F)F)n5)CC4)cc3c2C(C)C)cc(C)n1 [Example 156] ?
output: 7.52

input: Query: pIC50; subject: CNCCN1CCC(c2ccc3[nH]c(-c4cc(Cl)ncc4OC)c(C)c3c2)CC1 [Example 757]
output: 5.18

input: Form field: reported pIC50 of Cc1cc(-c2[nH]c3ccc(C4CCN(CC(=O)N(C)CCC5(O)CCCC5)CC4)cc3c2C(C)C)cc(C)n1 [Example 303]
output: 8.11

input: Any idea what pIC50 was measured for Cc1cc(-c2[nH]c3ccc(C4CCN(CC(=O)N(C)C)CC4)cc3c2C(C)C)c(C)cn1 [Example 642] ?
output: 7.79

(I) Cc1cc(-c2[nH]c3ccc(C4CCN(Cc5cncs5)CC4)cc3c2C(C)C)cc(C)n1 [Example 444]
(II) CCc1c(-c2ccnc(OC)c2)[nH]c2ccc(C3CCN(C4CCN(CC)CC4)CC3)cc12 [Example 792]
(III) COc1cc(-c2[nH]c3ccc(C4CCN(C5CCNCC5)CC4)cc3c2C(C)C)ccn1 [Example 800]
(IV) CCc1c(-c2ccnc(F)c2)[nH]c2ccc(C3CCN(C4CCN(CC(C)C)CC4)CC3)cc12 [Example 759]
input: Order the items by recorded pIC50; the first position goes to the largest value. List the labels, following the order given in the request.
output: I, III, II, IV
(I: 8.48, III: 6.78, II: 6.52, IV: 5.82)

(A) Cc1nccc(-c2[nH]c3ccc(C4CCN(C(=O)CN(C)C)CC4)cc3c2C(C)C)c1F [Example 587]
(B) Cc1cc(-c2[nH]c3ccc(C4CCN(S(=O)(=O)c5ccccc5)CC4)cc3c2C(C)C)ccn1 [Example 547]
input: Select the item with the higher value of pIC50 from the options A and B listed. // output: label of the selected item
output: A

(I) Cc1cc(-c2[nH]c3ccc(C4CCN(C(=O)CN5CC[C@H](N)C5=O)CC4)cc3c2C(C)C)cc(C)n1 [Example 188]
(II) Cc1cc(-c2[nH]c3ccc(C4CCN(CCC(F)(F)F)CC4)cc3c2C(C)C)cc(C)n1 [Example 677]
input: Parameter check: reported pIC50 is higher for which label, I or II ? Your answer should be the label attached to the chosen record.
output: I
(I: 8.68, II: 8.47)
